Entry source: a melting point compilation (Tetko et al.; mined from patent text by program, amines drawn as free bases though some values may be those of a salt)

Consider the following molecules; for each one, report its melting point.

Query: Report measured melting point; entry is O=C1CCC(C(=O)OCc2ccc(Cl)cc2)N1 (stereo not given)
Response: 119 to 120 °C

Query: Report measured melting point; entry is COc1ccc(N2CCN(c3c(C)c(C)c4c(c3C)C(O)(c3ccc(-c5ccccc5)cc3)C(C)(C)O4)CC2)cc1 (stereo not given)
Response: 182 to 184 °C

Query: Report measured melting point; entry is `Cc1cc(C)c([N+](=O)[O-])cc1N1CCCCC1=O`
Response: 134 to 135 °C

Query: Report measured melting point; entry is `CCC(C)(C)c1csc(C(C#N)=C(O)c2c(F)cccc2F)n1`
Response: 195 to 196 °C

Query: Report measured melting point; entry is `O=C(O)Cc1ccc(CCNS(=O)(=O)c2ccc(Cl)cc2)s1`
Response: 138 °C

Please report melting point for every entry that follows.
1. CCOC(=O)c1cnc(CC)nc1NCc1ccc(-c2ccccc2-c2nnn[nH]2)cc1
2. CN[C@@H](CC(C)C)C(=O)O
3. CCCCCCCCCCCCCCCCCCOCC(COC(c1ccccc1)(c1ccccc1)c1ccccc1)OS(=O)(=O)c1ccc(C)cc1 (stereo not given)
4. C[N+]([O-])=C(Cn1cncn1)c1ccc(Cl)cc1
5. CCCCCCCCCCCCCOc1ccc(CO)cc1

Response:
1: 114 to 116 °C; 2: 101 to 103 °C; 3: 52 to 53 °C; 4: 119 to 121 °C; 5: 72 to 75 °C

Please report melting point for every entry that follows.
1. CCCCC(C(=O)O)n1cncn1 (stereo not given)
2. Cc1nc(C(F)(F)F)ccc1NC(=NC#N)NC(NC(=O)c1ccc(Cl)cc1)C(C)(Cl)Cl (stereo not given)
3. CCCC(=O)N[C@@H]1CCc2cccc(N3CCN(C)CC3)c2C1
4. CCOC(=O)c1cc2ccc(C)c(Cl)c2[nH]1
5. CC(C)(C)NCC(O)COc1ccccc1C=Cc1cccc2c1CC(=O)N2 (stereo not given)
6. O=C1CCC(N2Cc3c(OCc4ccc(S(=O)(=O)N5CCOCC5)cc4)cccc3C2=O)C(=O)N1 (stereo not given)
7. C=CCNc1nc(NCC=C)c2scc(-c3ccccc3)c2n1

Response:
1. 141 to 143 °C
2. 115 to 116 °C
3. 131 to 132 °C
4. 73 to 75 °C
5. 112 °C
6. 308 to 310 °C
7. 98 to 100 °C

Please report melting point for every entry that follows.
1. COc1ccccc1NC(=O)Nc1nc(Oc2ccc3ccccc3c2)nc(N(CCC(=O)O)Cc2cccc3ccccc23)n1
2. CCOC(=O)c1c(C(F)F)nc(C(F)(F)F)c(C(=O)OC)c1NC(C)C
3. CCc1nn2c(-c3cccc(OC)c3)ccnc2c1C#N
4. Cc1ccc2c(Sc3cc(Cl)cc(Cl)c3)c(CCCC(N)=O)[nH]c2c1
5. C[C@]1(COc2ccc(N3CCC(COc4ccc(CCl)cc4)CC3)cc2)Cn2cc([N+](=O)[O-])nc2O1

Response:
1. 230 to 233 °C
2. 37 to 39 °C
3. 118 to 119 °C
4. 163 to 164 °C
5. 140 to 142 °C

Please report melting point for every entry that follows.
1. O=C(O)c1nc2c(=O)[nH]c3cc(C(F)(F)F)ccc3n2c1CNCc1ccccc1
2. CC(C)(NC=O)c1cc(Cl)cc(Cl)c1
3. CCCC1=NN(c2ccccc2C(=O)O)C(=O)C1=CNc1ccccc1CC
4. OCCC=Cc1ccc(-c2ccccc2)cc1
5. CCOC(=O)COc1cc2c(c(Cl)c1Cl)C(=O)C(CC#C[Si](C)(C)C)(c1ccccc1)C2 (stereo not given)
6. Cc1nc(C(Br)Br)nc(C(Br)Br)n1

Response:
["248 °C", "115 to 117 °C", "127 °C", "142 °C", "112 to 113 °C", "87 to 88.5 °C"]

Please report melting point for every entry that follows.
1. O=C(Nc1cccc(NCc2ccccc2)n1)c1cc(-c2ccc(F)cc2)n(C2CCCCO2)n1 (stereo not given)
2. Cn1c(CC#N)ccc1C(=O)c1ccc(Cl)cc1

Response:
["139 to 140 °C", "120 to 124 °C"]
